# Test system: HEK-293T
# assay.text: Multiplex assay against HEK293T
# Format: toxicity, cell-based
# settings: human, 12 h, 10 µM, compound concentration 10 uM, replicate 2
Criterion: Population Mitotic Cells (%) strictly under 40%. Met: MET. Not met: NOT MET.

compound	label.class
CC(C)(O)C(=O)N1CCN(c2ccc(C(F)(F)F)c(C3=C(c4c[nH]c5ccccc45)C(=O)NC3=O)c2)CC1	MET
Nc1nc(-c2ccco2)c2cnn(Cc3ccccc3F)c2n1	NOT MET
Cc1nn(C)c2nc(NNC(=O)Nc3cc(Cl)nc(Cl)c3)cc(C(C)C)c12	NOT MET
O=C(Nc1cc(-c2ccccc2)nn1-c1ccccc1F)c1ccc([N+](=O)[O-])cc1	NOT MET
COc1ccc2c(c1OCc1ccccc1)C[C@@H](C(=O)O)N(C(=O)C(c1ccccc1)c1ccccc1)C2	NOT MET
Cn1cc(C(=O)OCC2CCN(CCNS(C)(=O)=O)CC2)c2ccccc21	NOT MET
CCc1nn2c(C)cc(C)nc2c1Cc1ccc(-c2nnc(C3CCNCC3)o2)cc1	NOT MET
Cc1cc(O)c(-c2ccc([C@@H](C)CN(C)C)cc2)c2c1[nH]c(=O)c1sccc12	MET
CC(C)C[C@H](CO)Nc1nc(S[C@@H](C)c2ccccc2)nc2nc(N)sc12	MET
COCCCN1CCC(NC(=O)c2cc(Cl)c(N)c3c2OCC3)CC1 [PRUCALOPRIDE]	NOT MET
CN(C)C/C=C/C(=O)Nc1ccc(C(=O)N2CCCC(Nc3ncc(Cl)c(-c4c[nH]c5ccccc45)n3)C2)cc1 (stereo unspecified)	MET
